# test_system: T1, Human Fibroblast Activation Protein (FAP) on HT1080 cells (human, UniProt Q12884 1-760)
# T1 construct: HT1080 cells transduced with human FAP cDNA; also called HT1080-FAP; FAP+ HT1080
# test_method_notes: flow cytometry, scFv-Fc on HT1080-FAP cells
result_type: MFI (MFI)

>>> measurement("FAP.84.B2 (Fc fusion, Tested as scFv-Fc; orientation, linker and Fc of this construct not specified) VH: DVQLVESGGGVVRPGESLRLSCAASGFSFSSYAMNWVRQAPGKGLEWVSAISGSGGGTFYADSVKGRFTISRDNSKNTLYLQMNSLRAEDTAIYYCAKDPFGYGFFDSWGLGTLVTVSS VL: EIVMTQSPATLSVSPGDRATLSCRASQTVGSKLAWYQQKPGQAPRLLIYAASSRATGIPDRFSGSGSGTDFTLTISSLEPEDFAVYYCQQYYNWPPAFGGGTKVEIK")
17300

Where these numbers come from: patent US20250136720A1
